molecular target: PDLIM4, P50479; assay: holdup assay; parameters: key: below the threshold = too weak to quantify, mostly under pKd 3.1 to 4; details: plain residues with an end cap or a label only (N-terminal biotin on a linker: ttds)
Sequence (P50479 1-83): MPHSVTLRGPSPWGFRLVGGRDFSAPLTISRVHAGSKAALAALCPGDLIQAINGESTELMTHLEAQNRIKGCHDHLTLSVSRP

>  <binder>
SKPTRRETEV [HPV35-E6, P27228]

>  <pKd>
4.16

$$$$
>  <binder>
SSLQSLETSV [ATP2B4, P23634]

>  <pKd>
below the threshold

$$$$
>  <binder>
SGSRPSATVV [HPV73-E6, Q82005]

>  <pKd>
below the threshold

$$$$
>  <binder>
RPLPRKVSQL [DOCK4, Q8N1I0]

>  <pKd>
below the threshold

$$$$
